Experiment: Human HepG2 cell viability assay in 384 well format
Assay type: toxicity, cell-based
Design: dose 125 nL, time 70.5 hour; concentration not given beside the values
Conditions: HepG2 cells, read-out: Inhibition
Would you kindly list cytotoxicity at 70.5 h for each of these compounds?
Give just the number in %; leave the unit off.

Assign cytotoxicity at 70.5 h to the following record: `c1ccc(-c2nnc3sc(CCN4CCCCCC4)nn23)cc1`
-11.1

Assign cytotoxicity at 70.5 h to the following record: O=C(CCC1CCCO1)N1CCc2nc(-c3cnccn3)nc(O)c2C1 (stereo not given)
-3.93

Assign cytotoxicity at 70.5 h to the following record: `O=C(c1ccco1)N1CCN(Cc2nc(C3CC3)no2)CC1`
-5.91

Assign cytotoxicity at 70.5 h to the following record: Cc1nsc(NC2CCN(c3ccccc3OC(F)F)C2=O)n1 (stereo not given)
9.92

Assign cytotoxicity at 70.5 h to the following record: COc1cc(C)c(CN2CCC3(CC2)C(C(=O)O)CC(=O)N3C)cc1C (stereo not given)
3.6

Assign cytotoxicity at 70.5 h to the following record: CCc1nc(C(=O)N2CCN(C)CC2C)nn1-c1ccccc1Cl (stereo not given)
23.5

Assign cytotoxicity at 70.5 h to the following record: CCc1ncc(CN2CCC3(CCCN(CC4CCC4)C3)C2)cn1 (stereo not given)
-6.02

Assign cytotoxicity at 70.5 h to the following record: `Cc1ncc(CN(C)CCO)c2cc(C(=O)c3ccc(Br)cc3)oc12`
-15.5

Assign cytotoxicity at 70.5 h to the following record: CC(C)(NC(=O)C1CCCN(C2CCCC2)C1)c1nnc(N)s1 (stereo not given)
-3.27

Assign cytotoxicity at 70.5 h to the following record: `COC(=O)Nc1cccc(C(=O)N(C)Cc2cccc(O)c2)c1`
-6.41

Assign cytotoxicity at 70.5 h to the following record: O=C(C1CCCC1)N1CCOC(c2nc(-c3ncccn3)no2)C1 (stereo not given)
-4.9

Assign cytotoxicity at 70.5 h to the following record: Cn1cc(C(=O)N2CCCC(c3cnccn3)C2)cn1 (stereo not given)
-4.7

Assign cytotoxicity at 70.5 h to the following record: `O=C(CN1CCN(c2ccnc3c(F)ccc(F)c23)CC1)N1CCCC1`
8.2

Assign cytotoxicity at 70.5 h to the following record: Cc1c(C)n(CC(O)CN2CCCCCC2)c2c(Cl)cccc12 (stereo not given)
20.5

Assign cytotoxicity at 70.5 h to the following record: `Cc1noc(C(C)C)c1C(=O)NCCN1CCCCCC1=O`
-19

Assign cytotoxicity at 70.5 h to the following record: CC(C)c1nnc(NC(=O)N2CCN(C)CC2c2ccccc2)s1 (stereo not given)
9.58

Assign cytotoxicity at 70.5 h to the following record: `CC(C)N1CCOC[C@H]1c1nc(-c2ccncc2)c[nH]1`
-1.74

Assign cytotoxicity at 70.5 h to the following record: `COCCCN1CC2(CCC1=O)CCN(Cc1cc(C(C)C)no1)CC2`
29.5

Assign cytotoxicity at 70.5 h to the following record: `CCc1nc(NS(=O)(=O)c2cc(C)cc(F)c2)no1`
-0.337

Assign cytotoxicity at 70.5 h to the following record: O=C(NC1CCN(c2ccc(-c3ccccc3F)nn2)C1)C1CCC1 (stereo not given)
1.72

Assign cytotoxicity at 70.5 h to the following record: CCn1c(C)nnc1CN(C)C1CCN(Cc2nccn2C)C1 (stereo not given)
3.01

Assign cytotoxicity at 70.5 h to the following record: CC(NCCn1cccn1)c1ccccc1F (stereo not given)
-0.726

Assign cytotoxicity at 70.5 h to the following record: `Cc1ccc(NC2CCN(C(=O)COc3cccnc3)CC2)nn1`
22

Assign cytotoxicity at 70.5 h to the following record: Cc1ccc(F)c(N2CCCC(NS(=O)(=O)CCCF)C2=O)c1 (stereo not given)
-11.4

Assign cytotoxicity at 70.5 h to the following record: CC(c1cccc(S(N)(=O)=O)c1)N(C)CCCOc1ccccc1 (stereo not given)
-4.57
